# System: HCC-2998 colon
# procedure.text: NCI-60 one-dose screen, 48 h (100 = growth as untreated, 0 = no growth, -100 = all killed)
# run.conditions: 10 µM unless noted
The panel holds about 83,000 compounds, 20% with a hit somewhere; the sample as a whole holds those more often.
quantity: growth (%)
Kindly answer with a numeric value in %, unit omitted.

Please review the following examples before continuing.
>>> observed("Cc1c(Cc2ccccc2)c(=O)oc2c(C)c(OCC(=O)n3nc(C#N)cc3N)ccc12")
104
>>> observed("COC(=O)/C=C1/CCCCC1(C)C(=O)OC (stereo unspecified)")
119
>>> observed("Clc1ccc(N/N=C(/c2ccccc2)c2ccccn2)nc1")
45.1
>>> observed("COC(=O)/C(Br)=C/c1c[nH]c2ccc(Br)cc12")
102
>>> observed("COC(=O)c1cc(=O)nc(N/N=C/c2ccccc2O)s1")
89.1

Proceed to the following item.
Query (molecule): `CC(=O)Nc1nc(C)c(C(=O)NNS(=O)(=O)c2ccccc2)s1` ; field requested: growth
105

---

# Tested on: RXF 393 renal
# procedure.text: NCI-60 one-dose screen, 48 h
# run.conditions: 10 µM unless noted
Compounds without any hit were thinned out: in the full panel of roughly 83,000, 20% have a hit. Active and inactive are the calls of the source. Rule for the calls: active = growth percent below 10; inactive = the rest.
One label from this list, please: class 1 (active), class 0 (inactive)

>>> category_label("COc1ccc(NC(=O)/C=C(C)/C=C/C=C(C)/C=C/C2=C(C)CCCC2(C)C)cc1")
"class 0"
>>> category_label("Cc1nc2c(nnn2-c2ccccc2)c2nc(-c3ccc(Cl)cc3)oc(=O)c12")
"class 0"
>>> category_label("COc1cc(/C=C/C(=O)/C=C(/C=C/c2ccc(OC(C)=O)c(OC)c2)OB(F)F)ccc1OC(C)=O")
"class 0"

Please indicate how the test categorized `N=C(c1ccccc1)N(Cc1ccccc1)Cc1ccccc1` .
class 0

Please indicate how the test categorized `CC(C)(C)c1cc(C[P+](c2ccc(Cl)cc2)(c2ccc(Cl)cc2)c2ccc(Cl)cc2)cc(C(C)(C)C)c1O` .
class 0

---

Examples of compounds with documented growth follow.
# Tested on: COLO 205 colon
# procedure.text: NCI-60 one-dose screen, 48 h (100 = growth as untreated, 0 = no growth, -100 = all killed)
# run.conditions: 10 µM unless noted
This is part of a sample that, as a whole, favours compounds with a hit. Of some 83,000 tested, about 20% had one in any assay.
Kindly answer with a numeric value in %, unit omitted.

>>> observed("O=c1c2c(c3ccccc3n1-c1ccccc1)NC(=S)NC2c1ccc(Cl)cc1 (stereo unspecified)")
67.2
>>> observed("COc1cc(NC(C)CCCN)c2nc(C)ccc2c1OC (stereo unspecified)")
60.5
>>> observed("COc1ccc(C2CC(=O)c3c(O)cc(OC4OC(COC5OC(C)C(O)C(O)C5O)C(O)C(O)C4O)cc3O2)cc1O (stereo unspecified)")
112
>>> observed("CCCC(CCC)Oc1ccc(CCCC2=C(O)c3ccccc3C(=O)C2=O)cc1")
43.9
>>> observed("NC(N)=Nc1ccc(/C=C2\\C=Cc3ccccc32)cc1")
-77.9

Proceed to the following item.
Query (compound): `CCc1c(C)c2ccc(OCC(=O)N=Nc3c(O)[nH]c4ccccc34)c(C)c2oc1=O` ; field requested: growth
31.4

---

# System: LOX IMVI melanoma
# procedure.text: NCI-60 one-dose screen, 48 h
# run.conditions: 10 µM unless noted
This is part of a sample that, as a whole, favours compounds with a hit. Of some 83,000 tested, about 20% had one in any assay. The source made the active and inactive calls. The calls were made as follows: active = growth percent below 10; inactive = the rest.
One label from this list, please: 1 (yes) for active, 0 (no) for inactive

Please indicate how the test categorized `CC1=C(C)C(=O)C(C(C)C2=C(C)C(=O)C(C)=C(C)C2=O)=C(C)C1=O` .
0 (no)

Please indicate how the test categorized `OCCN1CCN(CC/C=C2/c3ccccc3Sc3ccc(C(F)(F)F)cc32)CC1` .
0 (no)

Please indicate how the test categorized `Cc1ccccc1-n1c(C)nc2cc(NC(=O)c3ccc(Cl)cc3)ccc2c1=O` .
0 (no)

---

# Test system: ACHN renal
# procedure.text: NCI-60 one-dose screen, 48 h (100 = growth as untreated, 0 = no growth, -100 = all killed)
# run.conditions: 10 µM unless noted
This is part of a sample that, as a whole, favours compounds with a hit. Of some 83,000 tested, about 20% had one in any assay.
quantity: growth (%)
Kindly answer with a numeric value in %, unit omitted.

Please review the following examples before continuing.
>>> observed("OCC(O)C(O)CC1SCCS1 (stereo not given)")
103
>>> observed("COc1ccc(-c2nc(SCC(C)C)nc(Nc3ccc(C(=O)O)cc3)c2C#N)cc1")
89.5
>>> observed("O=C(Nc1cccc(Cn2c(=O)[nH]c3ccc(Oc4ncccn4)cc3c2=O)c1)c1ccc(Cl)cc1")
40.3

Query (compound): `CC[C@H](Nc1ncnc2nc[nH]c12)c1nc2cccc(NCc3ccc(C(=O)NO)o3)c2c(=O)n1-c1ccccc1` ; field requested: growth
97.3

Query (compound): `O=C(Nc1ccc(-n2cc(-c3ccncc3)c(-c3ccc(Cl)c(O)c3)n2)cc1)c1cc(Cl)cc(Cl)c1` ; field requested: growth
57.3

Query (compound): `CN1C(=O)C(=Cc2coc3ccc(Br)cc3c2=O)C(=O)N(C)C1=O` ; field requested: growth
96.8

Query (compound): `Cc1ccc2c(c1)C(=O)CCS2` ; field requested: growth
107

Query (compound): `N#Cc1c(N)nc(Nc2nc3ccccc3[nH]2)nc1-c1ccc(Cl)cc1` ; field requested: growth
101

Query (compound): `Nc1ccc(N=Nc2ccccc2)c2cc(S(=O)(=O)O)ccc12` ; field requested: growth
104

Query (compound): `O=C(NCCNCCO)c1cc([N+](=O)[O-])cc([N+](=O)[O-])c1O` ; field requested: growth
107

---

# System: HCT-15 colon
# procedure.text: NCI-60 one-dose screen, 48 h
# run.conditions: 10 µM unless noted
Compounds without any hit were thinned out: in the full panel of roughly 83,000, 20% have a hit. Calls of active or inactive are those of the source. Rule for the calls: active = growth percent below 10; inactive = the rest.
One label from this list, please: Y (active), N (inactive)

Please indicate how the test categorized `N#Cc1c2cccnc2c2nnc3cc(Cl)c(Cl)cc3n12` .
Y

Please indicate how the test categorized `CCOc1ccc(/C=N/NC(=O)c2cccc3ccccc23)cc1OCC` .
N

Please indicate how the test categorized `CCCCCCNc1nc(N2CCOCC2)c2[nH]c(NCCCCCC)nc2n1` .
Y

---

# Test system: NCI-H23 lung
# procedure.text: NCI-60 one-dose screen, 48 h
# run.conditions: 10 µM unless noted
About 83,000 compounds went through this panel and 20% of them were active in at least one assay; those are over-represented in the sample as a whole. The source made the active and inactive calls. Rule for the calls: active = growth percent below 10; inactive = the rest.
One label from this list, please: YES = active, NO = inactive

>>> category_label("Nc1nc2c(c3cnccc13)C(c1cccc(Cl)c1)Cc1cnccc1-2 (configuration not stated)")
"YES"
>>> category_label("Cc1ccc2c(O)c(O)cc(NC(C)CCCN)c2n1 (configuration not stated)")
"NO"
>>> category_label("NCCCOc1cc(Cl)ccc1NC(=O)c1cc2ccccc2cc1OCCCN")
"YES"
>>> category_label("CC(O)C(N)=O (configuration not stated)")
"NO"
>>> category_label("COc1ccc(Nc2c3ccccc3nc3ccccc23)cc1")
"NO"

Please indicate how the test categorized `COc1cc2ncnc(-n3ncc4cc(NC(=O)Nc5ccccc5)ccc43)c2cc1OC` .
YES

Please indicate how the test categorized `CC(=O)Nc1ccc(CC#N)cc1Br` .
NO

---

# System: SK-OV-3 ovarian
# procedure.text: NCI-60 one-dose screen, 48 h (100 = growth as untreated, 0 = no growth, -100 = all killed)
# run.conditions: 10 µM unless noted
# Method: Growth inhibition of the SK-OV-3 human tumor cell line is measured as a screen for anti-cancer activity. Cells are grown in 96 well plates and exposed to the test compound for 48 hours. Compounds are tested at a single concentration, which is 10^-5 M for most compounds. The reported endpoint is percent growth (GI% or GIPRCNT), where numbers from 0 - 100% represent growth inhibition, and numbers from -100% - 0 represent cell death. For example, a value of 40 represents 60% growth inhibition. […]
About 83,000 compounds went through this panel and 20% of them were active in at least one assay; those are over-represented in the sample as a whole. Calls of active or inactive are those of the source. How the source made its calls: active means growth percent below 10; inactive means the rest.
Examples of molecules with documented growth follow.

>>> observed("COc1cc(NC(=O)CSc2nc3ccc(Cl)cc3c(=O)n2-c2ccc(F)cc2)cc(OC)c1OC")
"87.6% (inactive)"
>>> observed("O=C(CCl)NC1c2ccccc2Oc2ccccc21")
"85.6% (inactive)"
>>> observed("CCOC(=O)C1=NN(c2ccccc2)C2=NC(=O)/C(=C\\c3cn(-c4ccccc4)nc3-c3cc4ccccc4o3)C(=O)N12")
"97.6% (inactive)"

Query (molecule): `COc1ccccc1C(=O)Nc1cccc(-c2cc(=O)c3c(OC)c(OC)c(OC)cc3o2)c1` ; field requested: growth
100% (inactive)

Query (molecule): `O=C(c1ccccc1)c1ccccc1-c1ccccc1` ; field requested: growth
23.5% (inactive)

Query (molecule): `Oc1ccccc1/C=N/N=C\c1ccccc1Cl` ; field requested: growth
96% (inactive)

Query (molecule): CCCCCCCCCCC1OC(C)CC(C)O1 (stereo unspecified) ; field requested: growth
103% (inactive)

Query (molecule): `CC(=O)Nc1ccc(S(=O)(=O)Cl)cc1` ; field requested: growth
106% (inactive)

Query (molecule): `CCCCCCCCCCCCCCCCNC(=S)N/N=C/c1ccc(O)cc1O` ; field requested: growth
87.7% (inactive)

Query (molecule): `COc1ccc(/C=C2\SC(=O)N(Cc3cc(=O)oc4ccc(OC)cc34)C2=O)cc1` ; field requested: growth
96.6% (inactive)

Query (molecule): `CC[N+](C)(C)N` ; field requested: growth
109% (inactive)
